procedure_details: yeast display, Sf9 membrane polyspecificity reagent, FACS + sequencing; frameworks hold sequencing errors

residue_sequence: QVQLVESGGGLVQAGGSLRLTCAASGSIFSFYAMGWYRQAPGKERELVAAITQSDSSTYYADSVKGRFTISRDNAKNTVYLQMNSLKPVDTAVYYCAKDYYAYSDYDYWGQGTQVTVSS
polyreactivity (PSR sort gate): low polyreactivity
//
residue_sequence: QDQHVESEVGLVQAGGSLRLSCAASGSTVYPYAKGWYRKAPGKERELDAAISSGGSTYYADSVKGRFTISRDNAKNTVYLQMNSLKPEDTAVYYCAADFYYAYYWGQGSQVTVSS
polyreactivity (PSR sort gate): low polyreactivity
//
residue_sequence: QVQLVESGGGLVQAGGSLRLSCAASGLIFSGYAMGWYRQAPGKDRELVAAITWSGGRTYADSVKGRFTISRDNAKNTVYLQMNSLKPEDTAVYYCNADAYIDYWPYTWDYDYWGQGTQVTVSS
polyreactivity (PSR sort gate): high polyreactivity
//
residue_sequence: QVQLVESGGGLVQAGGSLRLSCAASGFTFTENVMGWYRQAPGKEREFVAAITYIGGRTYYADSVKGRFTISRDNAKNSVYLQMNSLKPEDTAVYYCAADWAYYVASYLYYTFDYWGQGTQVTVSS
polyreactivity (PSR sort gate): low polyreactivity
//
residue_sequence: QVQLVESGGGLVQAGGSLRLSCAASGFIFNYYAMGWYIQAPGKERELVAAISTNGGSTYYADSVKGRFTISRDNAKNTVYLQMNSLKPEDTAVYYCAARSYGVSGRYYRYTFGMDYWGQGTQVTVSS
polyreactivity (PSR sort gate): high polyreactivity
//
residue_sequence: QVQLVESGGGLVQAGGSLRLSCAASGIIFYYYAMGWYRQAPGKERELVAAISTSGGRTYYADSVKGRFTISRDNAKNTVYLQMNSLKPEDTAVYYCAKDFWYVTGGWSSGMDYWGQGTQVTVSS
polyreactivity (PSR sort gate): low polyreactivity
//
residue_sequence: QVQLVESVGGLVQAGGSLRLSCAASGRIFGTNAMGWYRQAPGKERELVADITSGGSTNYADSVKGRFTISRDNAKNTVYLQMNSLKPEDTAVYYCAADVIGDLRWYRDEYWGQGTQVTVSS
polyreactivity (PSR sort gate): low polyreactivity
//
residue_sequence: QVQLVESGGGLVQAGGSLRLSCAASGFIFYRYTMGWYRQAPGKERELVAAISGSGGSTYYADSVKGRFTISRDNAKNTVYLQMNSLKPEDTAVYYCAAAHRYWGQGTQVTVSS
polyreactivity (PSR sort gate): high polyreactivity
//
residue_sequence: QVQLVESGGGLVQAGGSLRLSCAASGRILLGNVMGWYRQAPGKERELVAAISIGGNTNYADSVKGRFTISRDNANNTVYLQMNSLKPEDTAVYYCNARSLVFPITFWEYDYWGEGTQVTVSS
polyreactivity (PSR sort gate): low polyreactivity
//
residue_sequence: QVQLVESGGGLVQAGGSLRLSCAASGNTFGQYTMGWYRQAPGKERELVAAISWDDSSTNYADSVKGRFTISRDNAKNTVYLQMNSLIPEDTAVYYCAKETELGTQYPYEYDYWGQGTQVTVSS
polyreactivity (PSR sort gate): low polyreactivity
//
residue_sequence: QVQLVESGGGLVQAGGSLRLICAASGFIFGSYAMGWYRQAPAKERELVAAINYDGGSTYYADSVKGRFTISRDNAKNTVYLQMNSMKPEDTAVYYCAADLYYTHMDYWGQGTQVTVSS
polyreactivity (PSR sort gate): low polyreactivity
//
residue_sequence: QVQLVESGGGLVQAGGSLRLSCAASGLIFQTYAMGWYRQAPGKERELVATISGSTGGTYYADSVKGRFTISRDNAKNTVYLQMNSLKPEDTAVYYCNASVFQSEYDYWGQGTQVTVSS
polyreactivity (PSR sort gate): low polyreactivity
//
residue_sequence: QVQLVESGGGLVQAGGSLRLSCAASGITFLSNAMGWYRQAPGKERELDAAISRGGGTTYYADSVKGRFTISRDIAKNTVYLLMNCLKPEDTAGSYCGTESTHTRRYWYEYWGLGTQVTVSS
polyreactivity (PSR sort gate): high polyreactivity
//
residue_sequence: QVQLVESGGGLVQAGGSLRLSCAASGRTFVFNAMGWYRPAPGKERELVAAITKNGGSTYYADSVKGRFTISRDNAKNTVYLQMNSLKPEDTAVYYCAAQWWRLYWEYYYWGQGTQVTVSS
polyreactivity (PSR sort gate): low polyreactivity
//
residue_sequence: QVQLVESGGGLVQAGGSLRLICAASGRIFHVNAMGWYRQAPGKERELVAAISTSGGRTYYADSVKGRFTISRDNAKNTVYLQMNSLKPEDTAVYYCAAVSRAPGLRYDYWGQGTQVTVSS
polyreactivity (PSR sort gate): high polyreactivity
//
residue_sequence: QVQLVESGGGLVQAGGSLRLSCAASGITFLNYAMGWYRQAPGKERELVAAIDTRGGRTNYADSVKGRFTISRDNAKNNVYLQMNSLKPEDTAVYYCAADPFYWYRSVRGEYWGQGSQVTVSS
polyreactivity (PSR sort gate): low polyreactivity
//
residue_sequence: RSGGGLVQAGGSLRLSCAPSGRIFKINAMGWYRQPPGKERALVARITRGGSTYYADSVKGRFTISRDNATNTVYLQMTSVKPEDTAVYYCAADDTGPYSNSYDYWGQGTQVTFSS
polyreactivity (PSR sort gate): low polyreactivity
//
residue_sequence: QVQLVESGGGLVQAGGSLRLSCAASGFIFWGNAMGWYRQAPGKERELVAAINYSGGRTYYADSVKGRFTISRDNAKNTVYLQMNSLKAEATAVNYCAAKYRYHVSGYDYWGQATQVTVSS
polyreactivity (PSR sort gate): high polyreactivity
//
residue_sequence: QVQLVESGGGLVQAGGSLRLSCAASGRIFRANTMGWYRQAPGKERELVAVITASGGSTYYADSVKGRFTISRDNAKNTVYLQMNSLKPEDTAVYYCNVRWSPAGTGLLDYWGQGTQVTVSS
polyreactivity (PSR sort gate): high polyreactivity
//
residue_sequence: QVQLVESGGGLVQAGGSLRLSCAASGSTFYTNAMGWYRQAPGKERELVAAISGSGGSTYYADSVKGRFTISRDNAKNTVYLQMNSLKPEDTAVYYCAARSRYYDTRFDYWGQGTQVTVSS
polyreactivity (PSR sort gate): low polyreactivity
//
residue_sequence: QVQLVESGGCLVQAGGSLRLSCAASGLIFYENAMGWYRQAPGKERELVAAINYDGDSTYYADSVKGRFTISRDNAKITVYLQMNSLKPEDTAVYYCAADGGWVLFWMDYWGQGTQVTVSS
polyreactivity (PSR sort gate): low polyreactivity

From: the nanobody polyreactivity screen of Harvey et al. (2022)
